Reference source for all entries: the supplement of paper PMC12645437

The following sequences are shown together with reported log2 fold change of degron read counts values.
Target Entity: T1, CRBN, Q96SW2;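 further: pooled lentiviral library of zinc finger degron-EGFP fusions in mCherry-positive Jurkat cells, FACS-sorted after compound exposure, with degron abundance counted by next-generation sequencing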
T1 chain: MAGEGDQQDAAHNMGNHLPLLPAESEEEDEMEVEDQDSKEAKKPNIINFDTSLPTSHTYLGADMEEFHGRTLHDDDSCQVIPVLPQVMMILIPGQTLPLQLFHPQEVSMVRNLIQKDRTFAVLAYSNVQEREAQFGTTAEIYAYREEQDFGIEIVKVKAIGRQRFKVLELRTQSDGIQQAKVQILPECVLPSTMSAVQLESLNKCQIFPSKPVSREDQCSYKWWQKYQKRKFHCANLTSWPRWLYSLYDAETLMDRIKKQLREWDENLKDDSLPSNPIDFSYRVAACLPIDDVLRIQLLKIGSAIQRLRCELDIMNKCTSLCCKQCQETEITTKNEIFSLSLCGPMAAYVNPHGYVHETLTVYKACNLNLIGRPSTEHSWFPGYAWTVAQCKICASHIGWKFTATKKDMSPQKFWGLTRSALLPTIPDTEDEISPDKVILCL
Protocol: log2 fold change of degron read counts, EGFP-low vs EGFP+ sorted cells (limma voom), compound-induced degradation; higher = more compound-induced degradation of the degron-EGFP fusion; degrons are variants of IKZF1/3 zinc finger 2; compound dose not given here
Condition Summary: Jurkat; 18 h; compound: compound 33 (diphenyl IMiD analogue)
In all, about 8,300 sequences were measured (“log2 fold change of degron read counts, EGFP-low vs EGFP+ sorted cells (limma voom), compound-induced degradation”: median about -1.1, highest 2% from about 3.2 on). This is one part of a sample in which the highest values are shown more often than they occur.
A bare number is all that is needed in reply.

Field: example entries. Status: answers known.
>>> print(df.to_string())
                              sequence_text  endpoint_result
0  FSCPQCGAAFTQKGNLLRHIKL [46F_47S_49P_50Q_52G_53A_54A_55F_67L_, Q9UKT9]             1.89
1  FGCPICGAWFTQKGNLLRHIKL [46F_47G_49P_50I_52G_53A_54W_55F_67L_, Q9UKT9]             1.47
2  LDCNQCGFQCTQKGNLLRHIKL [46L_47D_49N_50Q_52G_53F_54Q_55C_67L_, Q9UKT9]            -2.96

Read the next record carefully.
Challenge: Name the recorded log2 fold change of degron read counts for FACEICGRYFTQKGNLLRHIKL [46F_47A_49E_50I_52G_53R_54Y_55F_67L_, Q9UKT9] .
Response given: -1.87
